# Test system: A549
# METHOD NOTES: NCI tumour cell line growth inhibition, 48 h
Active and inactive are the calls of the source. Rule as the data show it: active = GI50 up to about 1.1 µM and inactive = higher.
OBSERVABLE: GI50

COMPOUND	RESULT
O=c1[nH]c2nc3ccccc3c(=O)n2/c1=C/c1ccc(O)cc1	40.6 µM (inactive)

Lab note: each compound below needs its GI50 filled in.
1. O=C(O)CN(c1ccccc1)S(=O)(=O)c1cccc([N+](=O)[O-])c1
2. CSCCC(N)C(=O)NCCNc1ccc(NCCNC(=O)C(N)CCSC)c2c1C(=O)c1ccccc1C2=O (configuration not stated)
3. CCNc1nc2c(ncn2C2CC(O)C(COP(=O)(O)O)O2)c(=O)[nH]1 (configuration not stated)
4. CC1(C)S[C@H](CN)N[C@H]1C(=O)OC(c1ccccc1)c1ccccc1
5. NS(=O)(=O)c1ccc(NC(=S)N/C=C2\C(=O)Nc3ccccc3C2=O)cc1
6. COc1ccc(-c2cnoc2-c2ccc(OC)c(OC)c2)cc1OC
7. N#Cc1nc(COCc2ccccc2)oc1N
8. CN1N(c2ccccc2)C(=O)C2=NC=C(C(=O)c3ccccc3)C(=N)C21C (configuration not stated)

Result:
1: > 100 µM (inactive); 2: 0.579 µM (active); 3: > 100 µM (inactive); 4: 42.2 µM (inactive); 5: > 100 µM (inactive); 6: 3.02 µM (inactive); 7: > 100 µM (inactive); 8: > 100 µM (inactive)

Please go through the list and note GI50 for each compound.
1. Cc1c2n(c(=O)[nH]c1=O)C1OC(CO)C(O2)C1N=[N+]=[N-] (configuration not stated)
2. COC1=C2C[C@H](O)C(C)C[C@@]2(OC)OC1=O (some centres not stated)
3. CC(C)(C)/N=C\N1CCC(C(c2ccccc2)c2ccccc2)CC1
4. O=C(O)c1cccc2cccc(-c3c4ccc(=O)cc-4oc4cc(O)ccc34)c12

Result:
1. > 100 µM (inactive)
2. > 100 µM (inactive)
3. 98.4 µM (inactive)
4. > 100 µM (inactive)

Hi there! I need GI50 for each item below, if you can.
1. N#Cc1sc2c(c1OC(=O)c1ccco1)c(=O)n(-c1ccccc1)c(=S)n2-c1ccccc1
2. COc1ccc2nc3cc(Cl)ccc3c(NCCCN(CCCl)CCCl)c2c1
3. Cc1ccc(C(CC(=O)C(C)(C)CN2CCCCC2)SCCS(=O)(=O)O)cc1 (configuration not stated)
4. COc1ccc2nc3ccc(OC)cc3c(SCc3ccc([N+](=O)[O-])cc3)c2c1
5. O=C(c1ccccc1)c1cn(/N=C\c2ccccc2)c(=O)nc1-c1ccccc1
6. CCOC(OCC)[C@H](N)[C@@H](O)[C@@H](O)[C@H]1COC(C)(C)O1

Result:
35.9 µM (inactive)
< 0.0122 µM (active)
36.1 µM (inactive)
> 100 µM (inactive)
> 100 µM (inactive)
> 100 µM (inactive)

Give GI50 for each of the items listed below.
1. Cc1cc2ccc(N)nc2nc1O
2. O=c1[nH]c2ccc(C(F)(F)F)cc2nc1-c1ccccc1
3. O=C1c2ccccc2-n2c1nc1ccc(Cl)cc1c2=O

Result:
["> 100 µM (inactive)", "> 100 µM (inactive)", "26.1 µM (inactive)"]

* * *

Answer each item with its documented GI50.
# System: UO-31
# METHOD NOTES: NCI tumour cell line growth inhibition, 48 h
Active and inactive are the calls of the source. Cut-off read from the data, not from the text of the source: active = GI50 up to about 1.1 µM and inactive = higher.

// below: answered compounds
COMPOUND	RESULT
COc1cc(NS(C)(=O)=O)ccc1NCc1c[nH]c2ccc3ncccc3c12	26.4 µM (inactive)
N#C/C(C(=O)Nc1ccccc1)=C(/N)N1CCOCC1	> 100 µM (inactive)
C1=CN2C[n+]3cccc(OCc4ccccc4)c3N=C2C(OCc2ccccc2)=C1	> 100 µM (inactive)
CCOC(=O)C12CC(C)=C(C)CC1CCCc1ccccc12 (stereo unspecified)	47 µM (inactive)
C(/C=N/N=C1NCCCN1)=N\N=C1NCCCN1	> 100 µM (inactive)

Ask: Please give the measured GI50 for this compound: Oc1ncnc2c1sc(=S)n2-c1ccccc1
Result: 74.6 µM (inactive)

Source listed as ChEMBL document CHEMBL1201862.
